- ASSAY_TEXT: Partition coefficient (logP)
- Assay type: physicochemical
- STATED_CONDITIONS: octanol/water
Param threshold (0.3) applies to logP; output true when value >= threshold, false when value < threshold.

Exercise: Kindly determine if logP recorded for CC1=CC(=O)C=CC1=O is above or exactly 0.3.
Key: true

Exercise: Kindly determine if logP recorded for CC1=C(C)C(=O)C(C)=C(C)C1=O is above or exactly 0.3.
Key: true

Exercise: Kindly determine if logP recorded for COC(COC(N)=O)C1=C(N2CC2)C(=O)C(C)=C(N2CC2)C1=O (stereo not drawn) is above or exactly 0.3.
Key: false

Exercise: Kindly determine if logP recorded for CC1=C(N2CC2)C(=O)C(CCO)=C(N2CC2)C1=O is above or exactly 0.3.
Key: false

Exercise: Kindly determine if logP recorded for NC1=CC(=O)c2ccccc2C1=O is above or exactly 0.3.
Key: true

Exercise: Kindly determine if logP recorded for O=C1/C(=N/CCO)C=C(O)c2ccccc21 is above or exactly 0.3.
Key: true

Exercise: Kindly determine if logP recorded for C/N=C1C(O)=C(N2CC2)/C(=N\C)C(O)=C\1N1CC1 is above or exactly 0.3.
Key: false

Exercise: Kindly determine if logP recorded for O=C1C=C(N2CC2)C(=O)C(N2CC2)=C1N1CC1 is above or exactly 0.3.
Key: false

Exercise: Kindly determine if logP recorded for C/N=C1C=C(O)/C(=N/C)C=C/1O is above or exactly 0.3.
Key: true

Exercise: Kindly determine if logP recorded for CCOC(=O)NC1=C(N2CC2)C(=O)C(NC(=O)OCC)=C(N2CC2)C1=O is above or exactly 0.3.
Key: false

Exercise: Kindly determine if logP recorded for O=C1C=C(Cl)C(=O)c2ccccc21 is above or exactly 0.3.
Key: true

Exercise: Kindly determine if logP recorded for O=C1C=C(N2CC2)C(=O)C=C1N1CC1 is above or exactly 0.3.
Key: false

Exercise: Kindly determine if logP recorded for C/N=C1\C=C(O)c2ccccc2C1=O is above or exactly 0.3.
Key: true
